Listed below: pIC50 values for each entry.
system: human ovarian cancer (SKOV-3); assay: Cytotoxicity (MTT) assay, SKOV-3; format: cell-based; conditions: SK-OV-3, SKOV-3, read-out: IC50
FYI, pIC50 means -log10 of a concentration in mol per litre.

# compound, measuredQuantity, reportedValue
records = [
    ("CC1(C)CC2C=C(C=O)[C@]3(C=O)C[C@]3(C)C2C1 (single isomer, unassigned; (+)) [Compound 8, (+)-isovelleral]", "pIC50", 5.28),
]

Here's the next entry for you.
[in] Tell me pIC50 reported for CC(=O)O[C@@H]1CC2C3=C(C(C)C)CC[C@]3(C)CC[C@@]2(C)[C@@H](OC2OC[C@@H](O)[C@H](O)[C@H]2O)C=C1C=O (some centres unmarked)
[out] 5.11
